Biological target: Sodium-dependent serotonin transporter (Homo sapiens)
Sequence (P31645 whole entry): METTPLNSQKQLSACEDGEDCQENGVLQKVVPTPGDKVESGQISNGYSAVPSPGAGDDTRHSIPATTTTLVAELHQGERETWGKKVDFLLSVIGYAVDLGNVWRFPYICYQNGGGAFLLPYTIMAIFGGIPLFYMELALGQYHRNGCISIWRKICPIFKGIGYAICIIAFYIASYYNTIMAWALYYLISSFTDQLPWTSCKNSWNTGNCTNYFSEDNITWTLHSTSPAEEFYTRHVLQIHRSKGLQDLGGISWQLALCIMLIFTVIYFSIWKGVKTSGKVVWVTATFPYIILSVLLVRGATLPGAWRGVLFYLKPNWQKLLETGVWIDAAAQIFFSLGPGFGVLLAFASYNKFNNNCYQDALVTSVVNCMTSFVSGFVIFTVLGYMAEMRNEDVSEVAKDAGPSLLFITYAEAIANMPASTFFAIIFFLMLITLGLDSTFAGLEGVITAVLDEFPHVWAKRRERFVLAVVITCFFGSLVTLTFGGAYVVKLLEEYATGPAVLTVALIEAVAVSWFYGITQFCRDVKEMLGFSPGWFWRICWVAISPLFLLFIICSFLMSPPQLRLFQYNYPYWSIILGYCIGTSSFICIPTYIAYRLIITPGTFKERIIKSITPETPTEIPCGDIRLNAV
Test: Displacement of [I125]RTI-55 from human SERT transfected in human HEK293 cells
Measured IC50 of individual entries
Reply numerically in nM, unit not repeated.

molecule=N#Cc1ccc2[nH]cc(CC[C@H]3C[C@@H](Cc4ccccc4)CCN3)c2c1 targetsystem="Sodium-dependent serotonin transporter (Homo sapiens)" endpointvalue=18
molecule="CN1CCOCC1CCc1c[nH]c2ccc(C#N)cc12 (configuration not stated)" targetsystem="Sodium-dependent serotonin transporter (Homo sapiens)" endpointvalue=76
molecule="N#Cc1ccc2[nH]cc(CCC3CCCN3)c2c1 (configuration not stated)" targetsystem="Sodium-dependent serotonin transporter (Homo sapiens)" endpointvalue=17
molecule="N#Cc1ccc2[nH]cc(CCC3CCCCN3CCC(F)(F)F)c2c1 (configuration not stated)" targetsystem="Sodium-dependent serotonin transporter (Homo sapiens)" endpointvalue=80
molecule="CN1CCCC1CCc1c[nH]c2ccc(C#N)cc12 (configuration not stated)" targetsystem="Sodium-dependent serotonin transporter (Homo sapiens)" endpointvalue=8.1
molecule="N#Cc1ccc2[nH]cc(CCC3CCCCN3Cc3cc(C(F)(F)F)cc(C(F)(F)F)c3)c2c1 (configuration not stated)" targetsystem="Sodium-dependent serotonin transporter (Homo sapiens)" endpointvalue=46

Now consider the entry below.
IN: Any idea what its IC50 is? The molecule is CC1(CCc2c[nH]c3ccc(C#N)cc23)CCCCN1 (configuration not stated)
OUT: 17

* * *

Molecular target: Sodium-dependent noradrenaline transporter (Homo sapiens, UniProt P23975)
Sequence (P23975 whole entry): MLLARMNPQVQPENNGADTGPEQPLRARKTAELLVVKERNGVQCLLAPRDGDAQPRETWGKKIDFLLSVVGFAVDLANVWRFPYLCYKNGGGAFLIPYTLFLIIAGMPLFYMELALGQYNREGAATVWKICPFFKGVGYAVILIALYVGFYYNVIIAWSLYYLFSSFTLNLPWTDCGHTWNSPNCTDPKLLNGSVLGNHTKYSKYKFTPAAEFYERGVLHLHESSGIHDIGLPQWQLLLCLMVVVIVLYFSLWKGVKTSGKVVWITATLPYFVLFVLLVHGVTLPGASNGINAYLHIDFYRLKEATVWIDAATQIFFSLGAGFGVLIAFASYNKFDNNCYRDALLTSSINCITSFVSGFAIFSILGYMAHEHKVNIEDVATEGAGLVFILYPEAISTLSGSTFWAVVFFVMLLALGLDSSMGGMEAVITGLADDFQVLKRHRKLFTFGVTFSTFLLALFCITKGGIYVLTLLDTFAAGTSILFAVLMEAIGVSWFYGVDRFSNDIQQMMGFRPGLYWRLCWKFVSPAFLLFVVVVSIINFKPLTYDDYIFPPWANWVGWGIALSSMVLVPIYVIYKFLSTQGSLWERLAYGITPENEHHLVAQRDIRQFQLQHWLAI
Test: Displacement of [125I]nisoxetine from human NET transfected in human HEK293 cells
pIC50: −log10 of the molar value.
measuredQuantity: pIC50

IN: Any idea what its pIC50 is? The compound is CN1CCc2ccccc2C1CCc1c[nH]c2ccc(C#N)cc12 (single isomer, unassigned; (-))
OUT: < 5.00

* * *

Target: Sodium-dependent serotonin transporter (Homo sapiens)
Experiment: Displacement of [I125]RTI-55 from human SERT transfected in human HEK293 cells
Flag rule - IC50 less than 2 nM flags condition met; the remaining entries get condition not met.

A selection of reference data follows.
molecule="CN1CCc2ccccc2C1CCc1c[nH]c2ccc(C#N)cc12 (single isomer, unassigned; (-))" classlabel="condition met"
molecule="N#Cc1ccc2[nH]cc(CCC3CCCCN3)c2c1 (stereo not given)" classlabel="condition not met"
molecule="CN1CCCCC1(C)CCc1c[nH]c2ccc(C#N)cc12 (stereo not given)" classlabel="condition not met"
molecule="N#Cc1ccc2[nH]cc(CCC3CCCCN3Cc3ccccc3)c2c1 (stereo not given)" classlabel="condition not met"

IN: For this molecule, is IC50 lower than 2 nM? CN1CCc2ccccc2C1CCc1c[nH]c2ccc(C#N)cc12 (stereo in doubt; 21a)
OUT: condition met

* * *

Target: Sodium-dependent serotonin transporter (Homo sapiens)
Test: Displacement of [I125]RTI-55 from human SERT transfected in human HEK293 cells
measuredQuantity: pIC50
Please keep in mind that pIC50 is minus log10 of the molar concentration; only the number is needed.

Below, each entry is followed by its recorded pIC50 result.
compound="CN1CCCCC1CCc1c[nH]c2ccc(C#N)cc12 (stereo unspecified)" endpointvalue=8.41
compound="CN1CCc2ccccc2C1CCc1c[nH]c2ccc(F)cc12 (stereo unspecified)" endpointvalue=8.24
compound="CCN1CCCCC1CCc1c[nH]c2ccc(C#N)cc12 (stereo unspecified)" endpointvalue=8.40
compound=CN1CC[C@H](Cc2ccccc2)C[C@@H]1CCc1c[nH]c2ccc(C#N)cc12 endpointvalue=8.12
compound="COc1ccc2[nH]cc(CCC3c4ccccc4CCN3C)c2c1 (stereo unspecified)" endpointvalue=6.92

Now consider the entry below.
IN: Any idea what its pIC50 is? The compound is CN1CCc2ccccc2C1CCc1c[nH]c2ccc(C#N)cc12 (single isomer, unassigned; (+))
OUT: 8.38

The origin of these recorded values is ChEMBL document CHEMBL1159043.
